target: human glucagon receptor (Homo sapiens, UniProt P47871); construct: expressed in transfected cells; host or cells: BHK (baby hamster kidney) cells; assay: Glucagon Binding Assay (III); conditions: BHK cell membranes, WGA SPA beads, 125I-glucagon; read-out: Glu Bd Assay (III) IC50
Sequence (P47871 26-477): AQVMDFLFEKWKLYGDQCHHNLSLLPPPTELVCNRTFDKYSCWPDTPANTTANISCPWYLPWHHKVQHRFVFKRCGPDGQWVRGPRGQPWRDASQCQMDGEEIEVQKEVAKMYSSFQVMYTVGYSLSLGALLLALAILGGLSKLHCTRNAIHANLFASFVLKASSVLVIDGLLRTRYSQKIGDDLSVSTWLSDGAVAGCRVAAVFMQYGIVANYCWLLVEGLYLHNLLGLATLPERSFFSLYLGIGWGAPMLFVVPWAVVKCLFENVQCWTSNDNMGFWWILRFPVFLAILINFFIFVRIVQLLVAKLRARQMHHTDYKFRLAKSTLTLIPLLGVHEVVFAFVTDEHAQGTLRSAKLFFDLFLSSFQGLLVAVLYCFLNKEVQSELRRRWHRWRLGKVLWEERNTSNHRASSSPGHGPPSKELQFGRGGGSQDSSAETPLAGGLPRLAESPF
Consider the following compounds and their measured IC50 readings.
Reply with the number and its unit after it.

[[record]]
compound = "CC(C)(C)C1CCC(N(Cc2ccc(C(=O)NCCC(=O)O)cc2)C(=O)Oc2ccc(-c3ccccc3)cc2)CC1 (stereo not shown)"
measurement_name = "IC50"
test_result = "135 nM"

[[record]]
compound = "COC(=O)c1cc(-c2cccc(NC(=O)N(Cc3ccc(C(=O)NCCC(=O)O)cc3)[C@H]3CC[C@H](C4CCCCC4)CC3)c2)oc1C"
measurement_name = "IC50"
test_result = "36 nM"

[[record]]
compound = "CC(C)(C)C1CCC(N(Cc2ccc(C(=O)NCCC(=O)O)cc2)C(=O)Nc2ccc(Cl)c(Cl)c2)CC1 (stereo not shown)"
measurement_name = "IC50"
test_result = "39 nM"


# ---- query compound ----
For CC(C)(C)c1ccc(N(Cc2ccc(C(=O)NCCC(=O)O)cc2)C(=O)Oc2cc(Cl)cc(Cl)c2)cc1 , what is its reported IC50?
520 nM

----------
molecular target: cloned human glucagon receptor (Homo sapiens, UniProt P47871); construct: expressed in transfected cells; plasma membrane preparation; test: Glucagon Binding Assay (II); conditions: plasma membranes of BHK cells expressing the receptor; read-out: Glu Bd Assay (II) IC50
Sequence (P47871 26-477): as above
Consider the following molecules and their measured IC50 readings.
Kindly provide the numeric value in nM only, without the unit symbol.

For O=C(O)CCNC(=O)c1ccc(CN(Cc2cccc(Br)c2)c2ccc(C3CCCCC3)cc2)cc1 , what is its reported IC50?
142

For CC(C)(C)C1CCC(N(Cc2ccc(C(=O)NCCC(=O)O)cc2)C(=O)Nc2ccc(Oc3ccccc3)cc2)CC1 (stereo not drawn) [drawing 1168] , what is its reported IC50?
121

For CC(C)(C)C1CCC(N(Cc2ccc(C(=O)NCCC(=O)O)cc2)NC(=O)c2ccc(OC(F)(F)F)cc2)CC1 (stereo not drawn) [drawing 1171] , what is its reported IC50?
108

----------
Consider the following compounds and their measured pIC50 readings.
target: human glucagon receptor (Homo sapiens); construct: expressed in transfected cells; host or cells: BHK (baby hamster kidney) cells; experiment: Glucagon Binding Assay (III); details: BHK cell membranes, WGA SPA beads, 125I-glucagon; read-out: Glu Bd Assay (III) IC50
Units for pIC50: none; it is -log10 of a concentration expressed in mol/L.

[[record]]
compound = "CS(=O)(=O)c1cc(NC(=O)N(Cc2ccc(C(=O)Nc3nn[nH]n3)cc2)c2ccc(C3CCCCC3)cc2)ccc1OC(F)(F)F [Example 314]"
measurement_name = "pIC50"
test_result = 7.21

[[record]]
compound = "CC(C)(C)C1CCC(N(Cc2ccc(C(=O)Nc3nn[nH]n3)cc2)C(=O)/C=C/c2c(Cl)cccc2Cl)CC1 (stereo not drawn) [Example 552]"
measurement_name = "pIC50"
test_result = 6.88


# ---- query compound ----
For CS(=O)(=O)c1ccc(F)c(NC(=O)N(Cc2ccc(C(=O)Nc3nn[nH]n3)cc2)c2ccc(C3CCCCC3)cc2)c1 [Example 260] , what is its reported pIC50?
6.83
